System: HCT-15 colon
Assay: NCI tumour cell line growth inhibition, 48 h
experimental-endpoint: TGI

Some compounds with known TGI results, for comparison:
compound	TGI
Cc1c(C)c2c(c(N)c1C#N)C(=O)N(Cc1ccc(S(N)(=O)=O)cc1)C2=O	> 100 µM
CCOC(=O)C1(C/C=C\CBr)CCCC1=O (stereo not given)	66.5 µM
Cc1cc2nc3c(C#N)c(-c4ccccc4)/c(=C\Nc4ccc(F)cc4)c(=O)n3c2cc1C	> 100 µM
Clc1ccc(C=Nc2ccc(Oc3ccc(Cl)cc3)c(Cl)c2)cc1	44.2 µM
O=C(Nn1c(-c2ccccc2)nc2ccccc2c1=O)c1ccc(Cl)cc1	> 100 µM
N#Cc1ccccc1OCCOc1ccccc1C#N	> 100 µM

query: Entry CSCCC(C(=O)O)N(C)C (stereo not given) has what TGI?
result: > 100 µM

query: Also, COC(=O)[C@@]12OC[C@]34C([C@@H](O)C1O)[C@@]1(C)CC(=O)C(OC(=O)CC(C)C(F)(F)F)=C(C)C1C[C@H]3OC(=O)[C@H](O)[C@H]42 (stereo not given in full) please.
result: > 62.5 µM

query: Now the compound `O=C1c2cc(O)c(O)cc2O[C@H](c2ccc(O)c(O)c2)[C@H]1O`
result: > 100 µM

query: # repeat for `Cc1cccc2sc(NC(=O)NS(=O)(=O)n3cnc4ccccc43)nc12`
result: > 100 µM

---

System: LOX IMVI melanoma
Assay: NCI tumour cell line growth inhibition, 48 h
experimental-endpoint: TGI (µM)
# output: bare number, implied unit µM

Examples with their reported TGI follow.
smiles-input	measurement-target	experimental-result
Cc1ccc(NC(=O)c2cc(S(=O)(=O)Nc3nnc(-c4ccccc4)c(-c4ccccc4)n3)c(SCc3ccccc3)cc2Cl)cc1	LOX IMVI melanoma	28.6
O=S(=O)(/N=C(\NO)Nc1ccc(Cl)cc1)c1cc(C(F)(F)F)cc(C(F)(F)F)c1	LOX IMVI melanoma	34.2
CN=c1sc2c(n1C)C(=O)c1ccccc1C2=O	LOX IMVI melanoma	10.4

query: What measured TGI goes with `COc1cc2nc(Cl)nc(NS(=O)(=O)c3cc4ccccc4s3)c2cc1OC` ?
result: 59.5

---

This section presents molecules with their documented TGI values.
Tested on: SK-OV-3 ovarian
Test: NCI tumour cell line growth inhibition, 48 h

molecule	experimental-endpoint	experimental-result
C=C1CC[C@@H](CCC2CCC3(OC2)O[C@]2(O)CC[C@@]3(C)OC2(C)C)C(C)(C)[C@H]1C/C=C1\CCOC1=O (stereo not given in full)	TGI	> 100 µM
CC(=O)[CH-]C(=O)c1ccccc1.[C-]#[O+].[C-]#[O+].[Ir]	TGI	> 100 µM
Nc1nc(=S)c2c(ncn2CCO)[nH]1	TGI	> 100 µM
CCN1/C(=C/C#C/C(C)=C\c2sc3ccc(Cl)cc3[n+]2CC)Sc2ccc(Cl)cc21	TGI	22 µM

Now let's try a different one.
query: Lab request: please report TGI under test system SK-OV-3 ovarian for O=C1NC(=O)C2C(=O)NC(=O)C1C2Cc1ccco1 (stereo not given)
result: > 100 µM

---

# TGI annotations
Test system: SF-268 CNS
Test: NCI tumour cell line growth inhibition, 48 h

Solved cases below.
compound	TGI
CN(NC1=NCCO1)c1ccc2ccccc2c1	> 100 µM
CSCCC(C(=O)O)N(C)C (stereo unspecified)	> 100 µM
CC(C)(CN1CCCCC1)C(=O)/C=C/c1ccc(Br)cc1	7.08 µM

query: Can you look up the measured TGI of `NCCOc1cccc(C2(N3CCCCC3)CCCCC2)c1` for me?
result: 86.7 µM

query: Thanks! And `COc1cc(-c2nccc3[nH]c(-c4ccc5cc[nH]c5c4)nc23)cc(OC)c1OC` ?
result: 3.21 µM

query: // repeat for `CCOC(=O)c1c2c(n(-c3ccc(C)cc3)c1C)-c1ccccc1C(=O)C2(C(=O)OCC)C(=O)OCC` and report
result: > 91.9 µM
